tested on: P12-Ichikawa; assay: cell viability relative to DMSO control; higher = less cytotoxic; conditions: HPLM + 10% dialyzed FBS; 48 h; 5.12 µM
endpointName: cell viability (%)
Return type: number; implicit unit %.

compound: CN1CCN(c2ccc([N+](=O)[O-])c3no[n+]([O-])c23)CC1
cell viability [%]: 95.7

// sample "CC(C)C[C@H](NC(=O)[C@H](CCc1ccccc1)NC(=O)CN1CCOCC1)C(=O)N[C@@H](Cc1ccccc1)C(=O)N[C@@H](CC(C)C)C(=O)[C@@]1(C)CO1" , its cell viability was 1.59

Entry "Cc1cnc(-c2cc(N3CCN(C(=O)CC[S+](C)(=O)[O-])CC3)ncc2Cl)c(C)c1" , cell viability reported as 130

cell viability for "O=C(Nc1ccc(F)c(C(F)(F)F)c1)Nc1nnc(-c2ccncc2)s1" is 119

Reported cell viability for "C[S+](=O)([O-])N1CCc2c(-c3cnc(N)nc3)nc(N3CCOCC3)nc21" was 104

Kindly note the recorded cell viability for "CNc1nccc(-c2cccnc2Oc2cc(C(=O)Nc3cccc(C(F)(F)F)c3)ccc2C)n1" , which is 117
